Values from ChEMBL document CHEMBL1147180

The following molecules are listed with their measured Ratio pKi values.
test.system: Muscarinic acetylcholine receptors; M1 & M2 (Homo sapiens) (UniProt P11229+P08172)
experimental.protocol: Selectivity for muscarinic M1 receptor over muscarinic M2 receptor
Format: protein assay

{"columns": ["smiles.entry", "Ratio pKi"],
 "data": [
  ["C=C(c1ccc(S(=O)(=O)c2ccc(OC)cc2)cc1)C1CCN(C2CCN(C(=O)OCC(C)C)CC2)CC1", 1.54],
  ["C=C(c1ccc(S(=O)(=O)c2ccc(OC)cc2)cc1)C1CCN(C2CCN(S(=O)(=O)Cc3ccccc3)CC2)CC1", 1.36],
  ["C=C(c1ccc(S(=O)(=O)c2ccc(OC)cc2)cc1)C1CCN(C2CCN(C(=O)OCc3ccccc3)CC2)CC1", 1.38],
  ["C=C(c1ccc(S(=O)(=O)c2ccc(OC)cc2)cc1)C1CCN(C2CCN(S(=O)(=O)CCC)CC2)CC1", 1.95],
  ["C=C(c1ccc(S(=O)(=O)c2ccc(OC)cc2)cc1)C1CCN(C2CCN(C(=O)OC)CC2)CC1", 1.78],
  ["C=C(c1ccc(S(=O)(=O)c2ccc(OC)cc2)cc1)C1CCN(C2CCN(C(=O)CC)CC2)CC1", 1.2],
  ["C=C(c1ccc(S(=O)(=O)c2ccc(OC)cc2)cc1)C1CCN(C2CCN(S(=O)(=O)CC)CC2)CC1", 2.21],
  ["C=C(c1ccc(S(=O)(=O)c2ccc(OC)cc2)cc1)C1CCN(C2CCN(C(=O)OC(C)C)CC2)CC1", 1.56]
]}
